- System: SK-MEL-28 melanoma
- test: NCI tumour cell line growth inhibition, 48 h
For each entry below, report its TGI value.

molecule	data-value
c1ccc(-c2nc3ccccc3[nH]2)c(OCCCCCOc2ccccc2-c2nc3ccccc3[nH]2)c1	14 µM

Need TGI for each of these molecules.
1. O=S1(=O)CS(=O)(=O)OCCCCCO1
2. COc1ccc(/C(C#N)=C2/O/C(=N/N)C(c3ccc(OC)c(OC)c3)C2=O)cc1OC (stereo not given)
3. O=[N+]([O-])/C=C/c1cn(CCCCCCCCn2cc(/C=C/[N+](=O)[O-])c3ccccc32)c2ccccc12
4. COc1ccc(C2C(C(=O)O)=C(COC(C)=O)Oc3cc4c(cc32)OCO4)c(OC)c1 (stereo not given)
5. CN1CCN(Cc2ccc(C(=S)Nc3ccccc3)s2)CC1

> 100 µM
> 100 µM
> 10 µM
> 100 µM
36.1 µM

Need TGI for each of these molecules.
1. N=C(N)c1ccc(N=Nc2c(O)c(C(=O)Nc3ccccc3)cc3ccccc23)cc1
2. N#CC(c1cc(Cl)ncn1)c1nc2cc(C(F)(F)F)ccc2s1 (stereo not given)
3. CCOC(=O)CCC(NC(=O)c1ccc(NCc2ccc3nc(OC)c(OC)nc3c2)c2ccccc12)C(=O)OCC (stereo not given)
4. CCOC(=O)NCC(=O)NCC(=O)NCC(N)=O

["> 100 µM", "37.4 µM", "> 100 µM", "> 100 µM"]

---

- System: HCT-116 colon
- test: NCI tumour cell line growth inhibition, 48 h
quantity: TGI

Solved cases (8 shown):
compound	TGI
N#CC(c1cc(Cl)ncn1)c1nc2cc(C(F)(F)F)ccc2s1 (stereo not given)	8.9 µM
CC(C)NC(=O)OCCN=C1c2ccccc2C(Br)C(Br)c2ccccc21 (stereo not given)	> 58.1 µM
Cc1cc(C)n(C(C)(C(=O)Cc2ccccc2)n2nc(C)cc2C)n1	> 100 µM
N#Cc1cc2c(n(C3OC(CO)C(O)C(O)C3O)c1=S)CCC2 (stereo not given)	> 100 µM
CCOC(=O)CCC(C(=O)OCC)n1nnc2cc(Nc3c(C)[n+]([O-])c4cc(Cl)ccc4[n+]3[O-])ccc21 (stereo not given)	> 100 µM
Nc1ncnc2c1ncn2CCCNO	> 100 µM
CC(C)(C)C(=O)C(N)C(=O)C(C)(C)C	> 100 µM
O=C(Nc1nnc(-c2ccccc2)o1)C(SC(=S)N1CCCC1)c1ccccc1 (stereo not given)	79.5 µM

Need TGI for each of these compounds.
1. COc1ccccc1-c1cc(=O)c2cccnc2[nH]1
2. Nc1cccc(C(=O)/C=C/c2ccccc2O)c1
3. CC1=NN(c2cc(Cl)c(S(=O)(=O)O)cc2Cl)C2(C1)C(Cl)C(=O)N2c1nc2ccccc2s1 (stereo not given)

> 100 µM
> 100 µM
> 100 µM

Need TGI for each of these compounds.
1. C[C@]12CC[C@H]3[C@@H](CCC4=C/C(=N/OCCN5CCCCC5)CC[C@@]43C)[C@@H]1CC[C@@H]2O
2. O=C(O)c1cc2ccc(Cl)cc2c(O)c1C1=CCCCC1
3. O=C(O)C1C2OC(C(Br)C2Br)C1C(=O)O (stereo not given)
4. COc1ccc(C2=NOC3=c4ccccc4=CSC3=C2c2ccccc2)cc1

1: > 100 µM; 2: > 100 µM; 3: > 100 µM; 4: > 100 µM
